# study_system: native mouse MET on living cells (mouse, UniProt P16056 25-1379)
# run_description: cell-based or functional assay
property_label: phospho-MET ELISA EMAX, MLP29 cells (% HGF activity)

binder	experimental_result
71G2 chimeric llama-human IgG1 mAb (antibody, V domains shown, human IgG1 CH1-CH2-CH3 and human CL lambda; also called 71G2 Human IgG1/lambda) VH: EVQLQESGGGLVQPGGSLRLSCAASGFTFSIYDMSWVRQAPGKGLEWVSTINSDGSSTSYVDSVKGRFTISRDNAKNTLYLQMNSLKPEDTAVYYCAKVYGSTWDVGPMGYGMDYWGKGTLVTVSS VL: SSALTQPSALSVSLGQTARITCQGGSLGSSYAHWYQQKPGQAPVLVIYGDDSRPSGIPERFSGSSSGGTATLTISGAQAEDEDDYYCQSTDSSGNTVFGGGTRLTVL	110
71G12 chimeric llama-human IgG1 mAb (antibody, V domains shown, human IgG1 CH1-CH2-CH3 and human CL kappa) VH: QVQLQESGGDLVQPGGSLRVSCVVSGFTFSRYYMSWVRQAPGKGLEWVSSIDSYGYSTYYTDSVKGRFTISRDNAKNTLYLQMNSLKPEDTALYYCARAKTTWSYDYWGQGTQVTVSS VL: EIVLTQSPSSVTASVGGKVTINCKSSQSVFIASNQKTYLNWYQQRPGQSPRLVISYASTRESGIPDRFSGSGSTTDFTLTISSVQPEDAAVYYCQQAYSHPTFGQGTKVELK	75.4
71D4 chimeric llama-human IgG1 mAb (antibody, V domains shown, human IgG1 CH1-CH2-CH3 and human CL lambda) VH: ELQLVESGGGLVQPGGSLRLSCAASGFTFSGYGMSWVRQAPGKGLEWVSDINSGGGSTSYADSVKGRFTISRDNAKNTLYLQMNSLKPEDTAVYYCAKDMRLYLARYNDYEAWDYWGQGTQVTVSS VL: SSALTQPSALSVTLGQTAKITCQGGSLGSSYAHWYQQKPGQAPVLVIYDDDSRPSGIPERFSGSSSGGTATLTISGAQAEDEGDYYCQSADSSGNAAVFGGGTHLTVL	95.3
74C8 chimeric llama-human IgG1 mAb (antibody, V domains shown, human IgG1 CH1-CH2-CH3 and human CL lambda) VH: EVQLVESGGGLVQPGGSLRLSCAASGFTFRNYHMSWVRQVPGKGFEWISDINSAGGSTYYADSVKGRFTISRDNAKNTLYLEMNSLKPEDTALYYCARVNVWGVNYWGKGTLVSVSS VL: QTVVTQEPSLSVSPGGTVTLTCGLSSGSVTTSNYPGWFQQTPGQAPRTLIYNTNSRHSGVPSRFSGSISGNKAALTITGAQPEDEADYYCSLYPGSYTNVFGGGTHLTVL	102
71A3 chimeric llama-human IgG1 mAb (antibody, V domains shown, human IgG1 CH1-CH2-CH3 and human CL lambda) VH: EVQLVESGGGLVQPGGSLRLSCAASGFSFKDYDITWVRQAPGKGLEWVSTITSRSGSTSYVDSVKGRFTISGDNAKNTLYLQMNSLKPEDTAVYYCAKVYATTWDVGPLGYGMDYWGKGTLVTVSS VL: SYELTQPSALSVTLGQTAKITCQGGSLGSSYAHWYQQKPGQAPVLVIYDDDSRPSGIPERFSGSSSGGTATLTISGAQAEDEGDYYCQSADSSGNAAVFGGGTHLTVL	96
71C3 chimeric llama-human IgG1 mAb (antibody, V domains shown, human IgG1 CH1-CH2-CH3 and human CL lambda) VH: QLQLVESGGGLVQPGGSLRLSCAASGFTFSSHAMSWVRQAPGKGLEWVSAINSGGGSTSYADSVKGRFTISRDNAKNTLYLQMNSLKPEDTAVYYCAKELRFDLARYTDYEAWDYWGQGTQVTVSS VL: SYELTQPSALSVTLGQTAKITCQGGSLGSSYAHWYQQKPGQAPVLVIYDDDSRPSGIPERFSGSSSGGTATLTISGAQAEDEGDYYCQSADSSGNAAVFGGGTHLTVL	98.8

Just for reference, patent US20200407452A1 is where these values come from.
